Reference for the values: patent US8901115B2

Molecular target: UniProtKB P03951
Assay: Factor XIa enzyme inhibition assay (chromogenic substrate S-2366)
Type: biochemical
Conditions: substrate S-2366, 50 mM HEPES pH 7.4
MEASURED_ATTRIBUTE: Ki (nM)

A selection of reference data follows.
>>> reported_value("COC(=O)Nc1ccc2c(c1)NC(=O)CCCC[C@H](N1CCC(c3cccc(Cl)c3)CC1=O)c1nc-2c[nH]1 (single isomer, unassigned) [Example 147]")
9.48
>>> reported_value("COC(=O)Nc1ccc2c(c1)NC(=O)[C@H](C)CCC[C@H](N1CCN(c3cccc(Cl)c3F)CC1=O)c1cc-2ccn1 [Example 20]")
7.46

I = COC(=O)Nc1ccc2c(c1)NC(=O)[C@H](C)CCC[C@H](N1CCC(c3c(C(F)(F)F)ccc(Cl)c3F)OC1=O)c1cc-2ccn1 (single isomer, unassigned) [Example 133]
II = COC(=O)Nc1ccc2c(c1)NC(=O)CC/C=C/C[C@H](N1CC[C@H](c3cc(Cl)ccc3OC(F)F)OC1=O)c1nc-2c[nH]1 [Example 77]
III = COC(=O)Nc1ccc2c(c1)N[C@@H](C(=O)OC)CCCC[C@H](N1CCC(c3cccc(Cl)c3)OC1=O)c1nc-2c[nH]1 (stereo partly drawn) [Example 5]
// smallest Ki at index 0, largest at the end Your answer should be the labels, listed in the requested order. II, III, I
(II: 7.46 nM, III: 12.2 nM, I: 69.3 nM)

----------
Molecular target: purified human Factor XIa (Homo sapiens (Human), UniProt P03951)
Sequence (P03951 388-625): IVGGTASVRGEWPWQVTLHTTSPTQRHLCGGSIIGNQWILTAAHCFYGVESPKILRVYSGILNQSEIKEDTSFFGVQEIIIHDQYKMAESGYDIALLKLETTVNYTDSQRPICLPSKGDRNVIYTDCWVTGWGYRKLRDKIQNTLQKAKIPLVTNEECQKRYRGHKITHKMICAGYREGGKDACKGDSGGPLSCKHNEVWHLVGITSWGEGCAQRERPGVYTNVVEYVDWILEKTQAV
Sequence (P03951 19-387 partner): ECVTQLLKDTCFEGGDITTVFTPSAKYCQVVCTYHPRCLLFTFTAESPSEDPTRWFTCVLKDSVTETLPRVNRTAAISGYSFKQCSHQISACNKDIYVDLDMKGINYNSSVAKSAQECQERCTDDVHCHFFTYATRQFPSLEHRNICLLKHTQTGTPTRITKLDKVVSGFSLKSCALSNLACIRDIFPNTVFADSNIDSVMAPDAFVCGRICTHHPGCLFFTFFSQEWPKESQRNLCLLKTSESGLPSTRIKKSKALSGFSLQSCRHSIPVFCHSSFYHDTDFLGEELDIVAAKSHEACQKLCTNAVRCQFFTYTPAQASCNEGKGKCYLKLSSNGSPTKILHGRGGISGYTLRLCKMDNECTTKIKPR
Experiment: Factor XIa enzyme inhibition assay (chromogenic substrate S-2366)
Assay type: biochemical
Settings: substrate S-2366, 50 mM HEPES pH 7.4
Where a name gives a salt, the structure may show the parent alone.
List of Ki values.

A selection of reference data follows.
>>> reported_value("COC(=O)Nc1ccc2c(c1)NC(=O)[C@H](C)CCC[C@H](N1CC[C@@H](c3c(F)ccc(Cl)c3F)NC1=O)c1nc-2c[nH]1 [Example 70]")
"< 5 nM"
>>> reported_value("COC(=O)Nc1ccc2c(c1)NC(=O)[C@H](C)CCCC(N1CC(=O)N(c3c(C(F)(F)F)ccc(Cl)c3F)CC1=O)c1cc-2ccn1 (single isomer, unassigned) [Example 37, TFA salt]")
"< 5 nM"

Please turn your attention to the following entry.
COC(=O)Nc1ccc2c(c1)N[C@@H](C(=O)OC)CCCC[C@H](N1CCC(c3cccc(Cl)c3)OC1=O)c1nc-2c(C#N)[nH]1 (single isomer, unassigned) [Example 79] on purified human Factor XIa (Homo sapiens (Human), UniProt P03951) gives Ki = 13.3 nM

----------
Target: purified human Factor XIa (Homo sapiens (Human), UniProt P03951)
Test: Factor XIa enzyme inhibition assay (chromogenic substrate S-2366)
Format: biochemical
Details: substrate S-2366, 50 mM HEPES pH 7.4
MEASURED_ATTRIBUTE: Ki (nM)

A selection of reference data follows.
>>> reported_value("COC(=O)Nc1ccc2c(c1)NC(=O)CC/C=C/C[C@H](N1CCC(C)(c3c(F)ccc(Cl)c3F)OC1=O)c1nc-2c(Cl)[nH]1 (single isomer, unassigned)")
1930
>>> reported_value("COC(=O)Nc1ccc2c(c1)NC(=O)CC/C=C/C[C@H](N1CCC(c3cc(Cl)ccn3)NC1=O)c1nc-2c[nH]1 (single isomer, unassigned)")
24.4
>>> reported_value("COC(=O)Nc1ccc2c(c1)NC(=O)[C@H](C)CCC[C@H](N1CCC(c3c(Cl)ccc(Cl)c3F)NC1=O)c1nc-2c[nH]1 (stereo partly drawn)")
6.83

1 = COC(=O)Nc1ccc2c(c1)NC(=O)[C@@H](C)CCC[C@H](N1CC[C@@H](c3c(F)ccc(Cl)c3F)OC1=O)c1ccnc-2c1
2 = COC(=O)Nc1ccc2c(c1)NC(=O)CCCC[C@H](N1CCC(c3cccc(Cl)c3)OC1=O)c1nc-2c[nH]1 (stereo partly drawn)
3 = COC(=O)Nc1ccc2c(c1)NC(=O)[C@H](C)CCC[C@H](N1CC[C@@H](c3nccc(Cl)c3F)N(C)C1=O)c1nc-2c[nH]1
4 = COC(=O)Nc1ccc2c(c1)NC(=O)[C@H](C)CCC[C@H](N1CC[C@H](c3nccc(Cl)c3F)N(C)C1=O)c1nc-2c[nH]1
5 = COC(=O)Nc1ccc2c(c1)N[C@@H](C(=O)OC)CCCC[C@H](N1CCC(c3cc(Cl)ccc3OC(F)F)OC1=O)c1nc-2c(C#N)[nH]1 (single isomer, unassigned)
// smallest Ki at index 0, largest at the end Your answer should be the labels, listed in the requested order. 1, 4, 5, 3, 2
(1: 9.6 nM, 4: 28.8 nM, 5: 41.8 nM, 3: 330 nM, 2: 3400 nM)

----------
Molecular target: purified human Factor XIa (Homo sapiens (Human))
Assay: Factor XIa enzyme inhibition assay (chromogenic substrate S-2366)
Format: biochemical
Settings: substrate S-2366, 50 mM HEPES pH 7.4, TFA salt
Where a name gives a salt, the structure may show the parent alone.
MEASURED_ATTRIBUTE: Ki (nM)
Express your answer in nM, writing the number without its unit.

Ki for COC(=O)Nc1ccc2c(c1)NC(=O)CC/C=C/C[C@H](N1CCC(C)(c3c(F)ccc(Cl)c3F)OC1=O)c1nc-2c(Cl)[nH]1 (stereo partly shown) [Example 32, TFA salt] is 2460
